Ref: the kinase profiling compilation of Christmann-Franck et al. (2016)

Examples of compounds with documented kinase still bound, per cent of control follow.
molecular target: NIM1 (human); test: KINOMEscan competition binding; conditions: compound 10.0 µM
Dear colleague, please send the value followed by its unit.

Please review the entries below; each comes with its answer.
mol_smiles=CCOc1cc2ncc(C#N)c(Nc3ccc(OCc4ccccn4)c(Cl)c3)c2cc1NC(=O)/C=C/CN(C)C assay_metric="kinase still bound, per cent of control" reported_measurement=90%
mol_smiles=O=C(NOC[C@H](O)CO)c1ccc(F)c(F)c1Nc1ccc(I)cc1F assay_metric="kinase still bound, per cent of control" reported_measurement=100%
mol_smiles=Cc1cc([C@@H](C)Nc2ccccc2C(=O)O)c2nc(N3CCOCC3)cc(=O)n2c1 assay_metric="kinase still bound, per cent of control" reported_measurement=100%
mol_smiles=O=C(O)c1ccc(Nc2ncc3c(n2)-c2ccc(Cl)cc2C(c2c(F)cccc2F)=NC3)cc1 assay_metric="kinase still bound, per cent of control" reported_measurement=100%
mol_smiles=Cc1ccc2nc(NCCN)c3ncc(C)n3c2c1 assay_metric="kinase still bound, per cent of control" reported_measurement=100%

Please tell me: kinase still bound, per cent of control of "COc1cc(N2CCN(C)CC2)ccc1Nc1nc(N)c(C(=O)c2c(Cl)cccc2Cl)s1" , system NIM1 (human)?
80%

Requested read-out kinase still bound, per cent of control, target or system NIM1 (human), entry "COc1cc(C(=O)NC2CCN(C)CC2)ccc1Nc1ncc2c(n1)N(C1CCCC1)CCC(=O)N2C(C)C"
100%

Request - read-out kinase still bound, per cent of control | tested on NIM1 (human) | compound "C=CC(=O)Nc1cccc(Nc2nc(N[C@H]3CC[C@H](N(C)C)CC3)nc3c2ncn3C(C)C)c1"
66%

Recall the recorded kinase still bound, per cent of control for "Cn1c(=O)n(-c2ccc(C(C)(C)C#N)cc2)c2c3cc(-c4cnc5ccccc5c4)ccc3ncc21" with NIM1 (human) and state it.
100%

Please state recorded kinase still bound, per cent of control (tested on NIM1 (human)) of "C=CC(=O)Nc1cc(NC(=O)c2ccc(C)c(NC(=O)c3ccno3)c2)cc(C(F)(F)F)c1"
98%

So what kinase still bound, per cent of control did "CCN1CCN(Cc2ccc(Nc3ncc4c(n3)N(C)c3ccccc3C(=O)N4C)cc2C(F)(F)F)CC1" get with NIM1 (human)?
57%

Param readout = kinase still bound, per cent of control; param system = NIM1 (human); param query = "O=C(NC1CC1)c1cccc(-c2ccc3c(NC(=O)C4CC4)n[nH]c3c2)c1" ; response: value
100%

Record "N#Cc1c(NC(=O)c2cccc3ccccc23)sc2c1CCCC2" : what is its kinase still bound, per cent of control with NIM1 (human)?
100%

GET /values?readout=kinase still bound, per cent of control&system=NIM1 (human)&item= "C[C@@H](Oc1cc(-n2cnc3ccc(CN4CCN(C)CC4)cc32)sc1C(N)=O)c1ccccc1C(F)(F)F"
30%

Find kinase still bound, per cent of control (NIM1 (human)) for the entry "CN(C)C/C=C/C(=O)Nc1cccc(Nc2ncc3c(n2)N(C)c2ccccc2C(=O)N3C)c1"
21%

Lab request: please report kinase still bound, per cent of control under test system NIM1 (human) for "Cc1ccc(NC(=O)c2cccc(C(C)(C)C#N)c2)cc1Nc1ccc2ncn(C)c(=O)c2c1"
100%

Please tell me: kinase still bound, per cent of control of "O=C1Nc2ccc(I)cc2/C1=C/c1cc(Br)c(O)c(Br)c1" , system NIM1 (human)?
100%

Record "CCC(=O)N1CCN(c2ccc(-n3c(=O)ccc4cnc5ccc(-c6cnc7ccccc7c6)cc5c43)cc2C(F)(F)F)CC1" : what is its kinase still bound, per cent of control with NIM1 (human)?
84%

###

Measured kinase still bound, per cent of control, listed per entry.
molecular target: PRKG2 (human) (UniProt Q13237); experiment: KINOMEscan competition binding; details: compound 10.0 µM
Sequence (Q13237 whole entry, looked up): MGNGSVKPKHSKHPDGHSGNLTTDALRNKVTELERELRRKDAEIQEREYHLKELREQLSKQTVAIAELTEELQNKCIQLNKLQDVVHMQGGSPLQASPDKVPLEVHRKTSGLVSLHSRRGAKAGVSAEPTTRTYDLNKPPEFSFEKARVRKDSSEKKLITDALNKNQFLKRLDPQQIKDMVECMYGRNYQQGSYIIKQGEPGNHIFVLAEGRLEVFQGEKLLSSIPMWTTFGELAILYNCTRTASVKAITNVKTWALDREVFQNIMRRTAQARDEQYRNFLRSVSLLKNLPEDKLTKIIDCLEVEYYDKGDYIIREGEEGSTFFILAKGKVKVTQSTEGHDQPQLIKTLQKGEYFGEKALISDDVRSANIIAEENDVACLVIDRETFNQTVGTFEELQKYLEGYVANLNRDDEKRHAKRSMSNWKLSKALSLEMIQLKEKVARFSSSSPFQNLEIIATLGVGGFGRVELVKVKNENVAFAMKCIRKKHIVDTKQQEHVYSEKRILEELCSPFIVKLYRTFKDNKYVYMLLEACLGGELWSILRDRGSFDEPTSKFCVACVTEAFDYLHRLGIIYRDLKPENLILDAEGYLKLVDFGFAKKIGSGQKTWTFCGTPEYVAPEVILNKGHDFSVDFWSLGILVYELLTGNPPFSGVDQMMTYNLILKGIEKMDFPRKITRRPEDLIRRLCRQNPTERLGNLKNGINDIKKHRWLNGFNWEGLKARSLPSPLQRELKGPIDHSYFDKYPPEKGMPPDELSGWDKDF

Some compounds with known kinase still bound, per cent of control results, for comparison:
mol_smiles=O=C(O)c1ccc(Nc2ncc3c(n2)-c2ccc(Cl)cc2C(c2c(F)cccc2F)=NC3)cc1 test_target="PRKG2 (human) (UniProt Q13237)" reported_measurement=96%
mol_smiles=COc1cc(C(=O)NC2CCN(C)CC2)ccc1Nc1ncc2c(n1)N(C1CCCC1)CCC(=O)N2C(C)C test_target="PRKG2 (human) (UniProt Q13237)" reported_measurement=100%
mol_smiles=Cc1ccc(C(=O)Nc2cccc(C(F)(F)F)c2)cc1Nc1cncc(C(N)=O)c1 test_target="PRKG2 (human) (UniProt Q13237)" reported_measurement=100%

// returns reported kinase still bound, per cent of control for input "N#Cc1c(NC(=O)c2cccc3ccccc23)sc2c1CCCC2"
86%

// lookup kinase still bound, per cent of control for "O=C(NC1CC1)c1cccc(-c2ccc3c(NC(=O)C4CC4)n[nH]c3c2)c1"
72%

Find the recorded kinase still bound, per cent of control belonging to "COc1cc(N2CCN(C)CC2)ccc1Nc1nc(N)c(C(=O)c2c(Cl)cccc2Cl)s1" and report it.
74%

###

target: PRKACA (human) (UniProt P17612); assay: KINOMEscan competition binding; details: compound 10.0 µM
ASSAY_METRIC: kinase still bound, per cent of control

Using the record for "CCN1CCN(Cc2ccc(Nc3ncc4c(n3)N(C)c3ccccc3C(=O)N4C)cc2C(F)(F)F)CC1" , report its kinase still bound, per cent of control.
100%

Please give the measured kinase still bound, per cent of control for this compound: "C=CC(=O)Nc1cc(NC(=O)c2ccc(C)c(NC(=O)c3ccno3)c2)cc(C(F)(F)F)c1"
100%

###

target: TYK2 JH1 catalytic (human) (UniProt P29597); test: KINOMEscan competition binding; details: compound 10.0 µM
Sequence (P29597 whole entry, looked up): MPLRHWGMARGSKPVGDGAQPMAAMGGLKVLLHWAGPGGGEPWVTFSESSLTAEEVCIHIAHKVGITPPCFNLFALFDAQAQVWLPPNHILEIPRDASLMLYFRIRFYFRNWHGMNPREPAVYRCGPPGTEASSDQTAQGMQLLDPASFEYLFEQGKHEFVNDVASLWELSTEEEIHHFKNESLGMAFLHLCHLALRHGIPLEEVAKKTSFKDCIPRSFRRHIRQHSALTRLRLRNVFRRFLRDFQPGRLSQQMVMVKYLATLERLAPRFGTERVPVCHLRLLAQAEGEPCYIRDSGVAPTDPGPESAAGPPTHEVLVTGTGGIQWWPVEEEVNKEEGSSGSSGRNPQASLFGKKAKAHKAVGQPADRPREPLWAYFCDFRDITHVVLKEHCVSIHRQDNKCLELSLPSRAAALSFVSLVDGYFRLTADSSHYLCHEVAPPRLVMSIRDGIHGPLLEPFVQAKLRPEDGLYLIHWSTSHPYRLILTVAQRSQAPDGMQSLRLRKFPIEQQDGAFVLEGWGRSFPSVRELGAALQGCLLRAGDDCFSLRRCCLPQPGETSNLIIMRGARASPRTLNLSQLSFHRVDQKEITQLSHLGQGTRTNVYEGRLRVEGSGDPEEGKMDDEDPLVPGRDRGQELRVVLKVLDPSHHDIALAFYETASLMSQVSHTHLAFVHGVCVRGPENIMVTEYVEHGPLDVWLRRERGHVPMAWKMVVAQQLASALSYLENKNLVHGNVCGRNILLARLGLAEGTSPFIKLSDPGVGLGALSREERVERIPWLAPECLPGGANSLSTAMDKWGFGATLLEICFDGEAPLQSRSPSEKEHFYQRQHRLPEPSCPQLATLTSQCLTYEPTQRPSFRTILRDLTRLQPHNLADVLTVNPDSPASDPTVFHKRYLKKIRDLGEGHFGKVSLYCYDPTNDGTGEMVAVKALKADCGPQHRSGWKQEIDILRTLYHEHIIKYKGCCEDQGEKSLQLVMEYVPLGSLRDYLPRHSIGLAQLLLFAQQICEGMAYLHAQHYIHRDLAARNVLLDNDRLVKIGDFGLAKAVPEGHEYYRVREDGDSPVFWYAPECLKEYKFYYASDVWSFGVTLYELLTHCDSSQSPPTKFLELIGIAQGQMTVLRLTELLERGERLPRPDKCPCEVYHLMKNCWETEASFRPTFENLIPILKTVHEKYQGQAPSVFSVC
Threshold-based label: kinase still bound, per cent of control under 80% gives Criterion met, kinase still bound, per cent of control not under 80% gives Criterion not met.

mol_smiles=Nc1ccc(-c2ccc3ncc4ccc(=O)n(-c5cccc(C(F)(F)F)c5)c4c3c2)cn1 label="Criterion not met"
mol_smiles=O=C1Nc2ccc(I)cc2/C1=C/c1cc(Br)c(O)c(Br)c1 label="Criterion met"
mol_smiles=CCC(=O)N1CCN(c2ccc(-n3c(=O)ccc4cnc5ccc(-c6cnc7ccccc7c6)cc5c43)cc2C(F)(F)F)CC1 label="Criterion met"

Here's the next entry for you.
Quick check: does "Cc1ccc(NC(=O)c2cccc(C(C)(C)C#N)c2)cc1Nc1ccc2ncn(C)c(=O)c2c1" have kinase still bound, per cent of control under 80%?
Criterion not met

###

molecular target: HIPK2 (human); assay: KINOMEscan competition binding; settings: compound 10.0 µM
ASSAY_METRIC: kinase still bound, per cent of control (%)
Just the number please, in %, no unit attached.

Sample records with kinase still bound, per cent of control:
mol_smiles=C=CC(=O)Nc1cc(NC(=O)c2ccc(C)c(NC(=O)c3ccno3)c2)cc(C(F)(F)F)c1 assay_metric="kinase still bound, per cent of control" reported_measurement=86
mol_smiles=COc1cc(N2CCN(C)CC2)ccc1Nc1nc(N)c(C(=O)c2c(Cl)cccc2Cl)s1 assay_metric="kinase still bound, per cent of control" reported_measurement=66
mol_smiles=C[C@@H](Oc1cc(-n2cnc3ccc(CN4CCN(C)CC4)cc32)sc1C(N)=O)c1ccccc1C(F)(F)F assay_metric="kinase still bound, per cent of control" reported_measurement=36
mol_smiles=CCN1CCN(Cc2ccc(Nc3ncc4c(n3)N(C)c3ccccc3C(=O)N4C)cc2C(F)(F)F)CC1 assay_metric="kinase still bound, per cent of control" reported_measurement=100
mol_smiles=OCCCNc1cc(-c2ccnc(Nc3cccc(Cl)c3)n2)ccn1 assay_metric="kinase still bound, per cent of control" reported_measurement=15
mol_smiles=CCC(=O)N1CCN(c2ccc(-n3c(=O)ccc4cnc5ccc(-c6cnc7ccccc7c6)cc5c43)cc2C(F)(F)F)CC1 assay_metric="kinase still bound, per cent of control" reported_measurement=58

Given the entry "CCOc1cc2ncc(C#N)c(Nc3ccc(OCc4ccccn4)c(Cl)c3)c2cc1NC(=O)/C=C/CN(C)C" , report its measured kinase still bound, per cent of control.
65

Report kinase still bound, per cent of control for "Cc1ccc(NC(=O)c2cccc(C(C)(C)C#N)c2)cc1Nc1ccc2ncn(C)c(=O)c2c1" please.
73

Need kinase still bound, per cent of control of "O=C(NC1CC1)c1cccc(-c2ccc3c(NC(=O)C4CC4)n[nH]c3c2)c1" , thanks.
36

Endpoint output: kinase still bound, per cent of control of "O=C(O)c1ccc(Nc2ncc3c(n2)-c2ccc(Cl)cc2C(c2c(F)cccc2F)=NC3)cc1" . Value?
100

Look up kinase still bound, per cent of control for this molecule: "CN(C)C/C=C/C(=O)Nc1cccc(Nc2ncc3c(n2)N(C)c2ccccc2C(=O)N3C)c1"
89

Look up kinase still bound, per cent of control for this molecule: "N#Cc1c(NC(=O)c2cccc3ccccc23)sc2c1CCCC2"
100

Sample "COc1cc(C(=O)NC2CCN(C)CC2)ccc1Nc1ncc2c(n1)N(C1CCCC1)CCC(=O)N2C(C)C" — what was its kinase still bound, per cent of control?
100

Recorded kinase still bound, per cent of control of "Nc1ccc(-c2ccc3ncc4ccc(=O)n(-c5cccc(C(F)(F)F)c5)c4c3c2)cn1" , please.
53

State the recorded kinase still bound, per cent of control for this entry: "Cc1ccc2nc(NCCN)c3ncc(C)n3c2c1"
58

Request the reported kinase still bound, per cent of control associated with "C=CC(=O)Nc1cccc(Nc2nc(N[C@H]3CC[C@H](N(C)C)CC3)nc3c2ncn3C(C)C)c1"
17

Look up kinase still bound, per cent of control for this molecule: "CCCS(=O)(=O)Nc1ccc(F)c(C(=O)c2c[nH]c3ncc(-c4ccc(Cl)cc4)cc23)c1F"
66

Recorded kinase still bound, per cent of control of "Cn1c(=O)n(-c2ccc(C(C)(C)C#N)cc2)c2c3cc(-c4cnc5ccccc5c4)ccc3ncc21" , please.
100

Reported kinase still bound, per cent of control, molecule "Cc1cc([C@@H](C)Nc2ccccc2C(=O)O)c2nc(N3CCOCC3)cc(=O)n2c1" : ____
79

Look up kinase still bound, per cent of control: "O=C1Nc2ccc(I)cc2/C1=C/c1cc(Br)c(O)c(Br)c1"
7.6
